B1: 2K2A (parent)
chain: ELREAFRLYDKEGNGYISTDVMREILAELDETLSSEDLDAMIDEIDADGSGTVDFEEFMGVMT

- Variants of: B1
- ASSAY TEXT: folding stability dG (cDNA display proteolysis); higher = more stable
- CONDITIONS: PBS, room temperature
Output: class label from folding stability dG. Mapping: low band = under 1 kcal/mol, middle band = from 1 kcal/mol up to 2 kcal/mol, high band = 2 kcal/mol and over

MUTATIONS	CLASS NAME
D43F	high band
G60W	high band
E57R	high band
Y16W	high band
N14Y	middle band
A40K	high band
A40R	high band
E31Q	high band
E56I	middle band
E57F	middle band
E24A	high band
A5N	middle band
E12S	middle band
T19A	middle band
K11N	middle band
F55T	low band
G13E	middle band
M22Y	low band
T63E	middle band
A5K	high band
I17K	low band
Y9P	low band
S35V	middle band
T52Q	middle band
S18A	middle band
D54A	middle band
L2M	middle band
T32C	middle band
G13Y	low band
E44I	high band
R23M	low band
V61Q	low band
R3N	middle band
E24T	high band
D37W	middle band
E28W	middle band
S35T	middle band
M59Q	middle band
D39F	middle band
E4W	middle band
A27Y	middle band
E12H	middle band
S50N	middle band

Value source: the MegaScale stability set (Tsuboyama et al. 2023)
